biological target: human MCH1 receptor (Homo sapiens); test: Competition binding, membrane preparations of A293 cells expressing the human MCH1 receptor, [3H] Compound 10 as radioligand; parameters: expressed in transfected cells; settings: Table 3e; read-out: hMCH1 Ki
Sequence (Q99705 whole entry): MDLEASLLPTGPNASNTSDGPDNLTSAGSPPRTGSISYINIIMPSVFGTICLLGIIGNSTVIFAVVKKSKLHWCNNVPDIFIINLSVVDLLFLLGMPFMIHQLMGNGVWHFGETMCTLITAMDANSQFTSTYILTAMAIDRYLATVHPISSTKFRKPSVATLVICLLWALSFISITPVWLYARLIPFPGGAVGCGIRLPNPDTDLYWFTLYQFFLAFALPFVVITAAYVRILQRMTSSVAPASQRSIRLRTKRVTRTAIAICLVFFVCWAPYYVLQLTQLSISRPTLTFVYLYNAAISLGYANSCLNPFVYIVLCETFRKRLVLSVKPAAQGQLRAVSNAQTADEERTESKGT
pKi: −log10 of the molar value.

substance: 2-(3,4-DIFLUOROPHENYL)4,5-DIHYDROIMIDAZOLE-1-CARBOXYLIC ACID {3-[4-PHENYL-4-(4-BROMO-5-METHYLTHIOPNEN-2-YL)]-PROPYL}-AMIDE [Example 19]
pKi: 8.52

====

Target: human α2C adrenoceptor (Homo sapiens)
Construct: expressed in transfected cells
Sequence (P18825 1-462): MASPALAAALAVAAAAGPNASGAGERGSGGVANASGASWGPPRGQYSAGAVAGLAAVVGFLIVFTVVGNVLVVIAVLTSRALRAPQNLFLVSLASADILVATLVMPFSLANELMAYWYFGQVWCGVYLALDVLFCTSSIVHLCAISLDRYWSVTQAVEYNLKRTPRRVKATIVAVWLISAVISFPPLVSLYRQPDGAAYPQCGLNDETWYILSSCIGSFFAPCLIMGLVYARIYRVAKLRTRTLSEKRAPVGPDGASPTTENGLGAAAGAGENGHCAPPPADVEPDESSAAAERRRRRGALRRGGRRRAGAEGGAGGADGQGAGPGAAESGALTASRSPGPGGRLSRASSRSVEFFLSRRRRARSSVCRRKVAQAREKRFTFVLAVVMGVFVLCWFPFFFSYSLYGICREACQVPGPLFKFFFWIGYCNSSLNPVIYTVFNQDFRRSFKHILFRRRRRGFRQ
Assay: Binding affinity at the human α2C adrenergic receptor
Conditions: Table 3d; read-out: hα2C Ki
pKi: −log10 of the molar value.

substance: 2-(3,4-DIFLUOROPHENYL)4,5-DIHYDROIMIDAZOLE-1-CARBOXYLIC ACID {3-[4-PHENYL-4-(4-BROMO-5-METHYLTHIOPNEN-2-YL)]-PROPYL}-AMIDE [Example 19]
pKi: 6.76
